Test system: EKVX NSCLC
assay_details: NCI tumour cell line growth inhibition, 48 h
assay_endpoint: GI50

Worked cases, answers included:
> print(dat)
                         chemical.structure  assay.endpoint  reported.value
1  COC1(C(=O)N2Cc3nc(Cl)nc(N[C@H](C)c4cc(N)cc(C(F)(F)F)c4)c3C2)CCOCC1            GI50         14.1 µM
2  O=[Se]([O-])c1ccccc1.O=[Se]([O-])c1ccccc1.[OH3+].[OH3+].[Pt+2]            GI50         6.34 µM

# next compound below
Problem: Item NC(N)=N/N=C(/c1ccccc1)c1ccc(F)cc1 with EKVX NSCLC - GI50?
Result: 0.65 µM

====

The compounds listed here are annotated with their TGI.
Test system: RXF 393 renal
assay_details: NCI tumour cell line growth inhibition, 48 h

Worked cases, answers included:
compound	TGI
CC(C)(C)OC(=O)NC(Cc1ccccc1)C(=O)OCN1C(=O)C2C3C=CC(C2C1=O)C1C2C(=O)N(COC(=O)C(Cc4ccccc4)NC(=O)OC(C)(C)C)C(=O)C2C31 (stereo not given)	> 64.2 µM
N#CC1(c2nc3ccccc3o2)C(=O)C(=O)N(C2C3CC4CC(C3)CC2C4)C(=O)C1=O (stereo not given)	> 100 µM
c1sc(NC2=NCCO2)c2c1CCCC2	> 100 µM

Problem: Item COc1ccc(-c2c(C#N)c(N)n(C3OC(CO)C(O)C(O)C3O)c(=S)c2C#N)cc1 (stereo not given) with RXF 393 renal - TGI?
Result: > 100 µM

Problem: Similarly, Cc1c(S(=O)(=O)c2ccccc2)c(N)n(Cc2ccccc2)c1C ?
Result: > 100 µM

====

Test system: ACHN renal
assay_details: NCI tumour cell line growth inhibition, 48 h
assay_endpoint: TGI

Worked cases, answers included:
> print(dat)
                                   compound  assay.endpoint  reported.value
1  CCC(=O)C(c1ccccc1)c1ccccn1 (stereo not drawn)             TGI        > 100 µM
2  CC[C@@H]1CC[C@@H]2[C@H](CC[C@]3(C)[C@@H](O)CC[C@@H]23)[C@H]1C(=O)O             TGI        > 100 µM

Problem: TGI for O=C1CC(c2ccco2)C2(C(=O)NC(=O)NC2=O)C(c2ccco2)C1 (stereo not drawn) ?
Result: > 75 µM

====

Test system: SR leukemia
assay_details: NCI tumour cell line growth inhibition, 48 h
The compounds listed here are annotated with their GI50.

> print(dat)
                                   compound  reported.value
1  Cc1cc2nc3c4cc(Cl)ccc4n(CCN(C)C)c3nc2cc1C          682 nM

Problem: GI50 for COc1cc(C(=O)NC2c3ccccc3-c3ccccc32)c(N)cc1OCc1ccccc1 ?
Result: 98600 nM

Problem: Similarly, N#Cc1c(-c2cccs2)c2c(=S)[nH]c(=S)[nH]c2[nH]c1=S ?
Result: 29300 nM

Problem: Similarly, C#Cc1cnc(=O)n(C2CC(O)C(CO)O2)c1 (stereo not drawn) ?
Result: 91500 nM

Problem: Similarly, CCn1c(-c2nonc2N)nc2c(C#CCN)ncc(OCCCN)c21 ?
Result: > 25000 nM

Problem: Similarly, CN1CCN(Cc2ccc(C(=O)Nc3cncc(C#Cc4cnc(N)c5ccccc45)c3)cc2C(F)(F)F)CC1 ?
Result: 2090 nM

Problem: Similarly, CCN1CCN(c2nc(NCCCNc3ccnc4cc(Cl)ccc34)c3ccccc3n2)CC1 ?
Result: 1290 nM

Problem: Similarly, O=C(/C=C/c1ccc(Cl)cc1)c1ccc(Cl)cc1Cl ?
Result: 2310 nM

====

Test system: HCT-116 colon
assay_details: NCI tumour cell line growth inhibition, 48 h
The compounds listed here are annotated with their TGI.

Worked cases, answers included:
> print(dat)
                                   compound  reported.value
1   CNC(=O)c1ccccc1CC1(O)c2ccccc2Oc2ccccc21        > 100 µM
2  Nc1n[nH]c2ccc([C@@H]3Nc4ccc5[nH]ncc5c4[C@H]4[C@H]5CCC(C5)[C@H]43)cc12        > 100 µM
3  Cc1ccc(-c2c(N)nc(NC#N)nc2CCC(=O)Nc2ccccc2[N+](=O)[O-])cc1        > 100 µM
4  Cc1cn(C2CC(N)C(CN)O2)c(=O)[nH]c1=O (stereo not drawn)        > 100 µM
5  Cc1c(Cl)cccc1NC(=O)C(=O)C1C(=O)CC(C)(C)CC1=O        > 100 µM

# next compound below
Problem: TGI for C=C1C(O)C2CCC(C)(C)C(=O)C2=C(CC(C)C)C12CC2 (stereo not drawn) ?
Result: > 100 µM

====

The compounds listed here are annotated with their TGI.
Tested on: SR leukemia
assay_details: NCI tumour cell line growth inhibition, 48 h

Worked cases, answers included:
> print(dat)
                                   compound  target.under.test  reported.value
1  N#Cc1c(NC(=S)NC(=O)c2ccccc2)nc2c(c1-c1ccccc1)CCC2        SR leukemia        > 100 µM
2  C#Cc1cnc(=O)n(C2CC(O)C(CO)O2)c1 (stereo not drawn)        SR leukemia        > 100 µM

Problem: TGI for Cc1c(/C=N\NC(=S)N2CCN(C(=S)N/N=C\c3c(C)n(C)n(-c4ccccc4)c3=O)CC2)c(=O)n(-c2ccccc2)n1C ?
Result: > 100 µM

====

System: M19-MEL melanoma
assay_details: NCI tumour cell line growth inhibition, 48 h
assay_endpoint: TGI

> print(dat)
                                   compound  reported.value
1  Cc1c(Cl)cccc1NC(=O)C(=O)C1C(=O)CC(C)(C)CC1=O        > 100 µM
2  COc1ccc(C2C(Cl)C(=O)N2NC(=O)c2ccc(NC(C)=O)cc2)cc1 (stereo not drawn)        > 100 µM

Problem: TGI for CCOC(=O)C1=C(C)N(c2ccccc2)C2=C(C(=O)N(c3ccccc3)C2c2ccccc2)C1c1ccccc1 (stereo not drawn) ?
Result: > 100 µM

====

System: T-47D breast
assay_details: NCI tumour cell line growth inhibition, 48 h
The molecules listed here are annotated with their TGI.
Only the number, expressed in µM, is required.

molecule	target_under_test	TGI / µM
Cc1nn(-c2ccc(F)cc2)c2ncnc(Nc3ccc(NC(=O)Nc4ccc(Cl)c(C(F)(F)F)c4)cc3)c12	T-47D breast	5.27
COC(=O)C1(Cc2ccccc2)Cc2cc3c(cc2C1=O)CCC3 (centres undefined)	T-47D breast	66.6
O=C(c1ccc2ccccc2c1)c1c(C(F)(F)F)n([O-])c2cc(Cl)c(Cl)cc2[n+]1=O	T-47D breast	3.01
O=C1CC(=O)N(c2ccccc2)N1/C(=C/c1ccccc1)c1ccccc1	T-47D breast	67.8

Problem: TGI for CN=C(N)N/N=C(\c1ccccc1)c1ccc(Br)cc1 ?
Result: 26.7

Problem: Similarly, O=C(/C=C/c1ccc(Cl)cc1)c1ccc(Cl)cc1Cl ?
Result: 22.3

====

System: HCT-15 colon
assay_details: NCI tumour cell line growth inhibition, 48 h
The molecules listed here are annotated with their TGI.

molecule	reported_value
Cc1ccc(N=Nc2c3c(c(O)c4ccccc24)CCC(C)(C)O3)cc1	67.3 µM

# next molecule below
Problem: Item Oc1ccccc1/C=N/Nc1ccc2ccccc2n1 with HCT-15 colon - TGI?
Result: > 100 µM

====

Test system: SK-MEL-5 melanoma
assay_details: NCI tumour cell line growth inhibition, 48 h
The compounds listed here are annotated with their log10 TGI.
All values: log10 TGI [µM].

Worked cases, answers included:
> print(dat)
                                   compound  assay.endpoint  reported.value
1    COC(=O)C(=O)CC(=O)CCn1ncc(Cl)c(Cl)c1=O       log10 TGI            1.49
2  O=C(c1cccs1)c1c(C(F)(F)F)n([O-])c2ccccc2[n+]1=O       log10 TGI            0.12
3  COc1ccc2c(c1)c1c(n2CCN2CCOCC2)-c2ccccc2CC1       log10 TGI            1.67
4   CNC(=O)c1ccccc1CC1(O)c2ccccc2Oc2ccccc21       log10 TGI            1.11
5  C[C@@H]1CC[C@@H]2[C@@H]1[C@H](OC(=O)/C=C/c1ccccc1)[C@]1(c3ccccc3)C[C@@H](OC(=O)CO)[C@@]2(C)O1       log10 TGI            1.42
6  CC(=O)OCC1OC(N2C(=O)/C(=C\c3ccc(Cl)cc3)C(N)=Nc3ccccc32)C(OC(C)=O)C(OC(C)=O)C1OC(C)=O (stereo not drawn)       log10 TGI            1.43

# next compound below
Problem: log10 TGI for c1cc(-c2cnc(-c3ccc4c(c3)CCCO4)o2)ccn1 ?
Result: 1.40
